Values were extracted from paper PMC10397247.

Target of assay: T1, 4H584-bH
T1 chain: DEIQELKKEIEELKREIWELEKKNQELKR
Test name: two-hybrid library CCNG1;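 note: natural log of median RNA to DNA barcode read ratio; higher means stronger binding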
Test readout: interaction score
Give your answer as a number; write no unit.

Binder	Endpoint value
DKNQELEKEIEELERKNWELKKEIQELER [4H3129-bH]	-0.445
DENQELKKKIEELEREIWELKKENQELKR [4H1804-bH]	0.198
DKNQELEKEIEELKRKIWELEKENQELKR [4H3172-bH]	-1.68

Moving on to the next binder.
# interaction score (binder: DKNQELEKKIEELKRENWELEKKIQELKR [4H3414-bH] ) is -0.695
